experimentNotes: mitochondrial membrane potential change in A549 cells, profiling panel, cell-based, JC-1 fluorescence, basal, 24 h, 100 nL (AID 1138);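 further: A549 lung adenocarcinoma cells under basal conditions with no added stimulus; test concentration not given here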
studyConditions: higher = more signal
Classification field. Basis: z-score. Definitions: bucket A = under 0.7, bucket B = from 0.7 up to 2, bucket C = 2 and over

Which category does the recorded z-score put `COCCOC(=O)N1C(=O)[C@@]2(c3cc(C#CC4(O)CCCCCC4)ccc31)[C@H](c1ccc(O)cc1)N1[C@H](c3ccccc3)[C@H](c3ccccc3)OC(=O)[C@H]1[C@@H]2C(N)=O` in?
bucket A

Which category does the recorded z-score put CC(C)C(CO)N1C(=O)[C@@H]2[C@H]3C(=O)OCC=C[C@H]3OC23C=CCN(Cc2ccccc2)C(=O)[C@@H]13 (stereo not given in full) in?
bucket B

Which category does the recorded z-score put `COCCCNC(=O)[C@@]1(CCS(=O)(=O)c2ccccc2)N=C(c2ccc(OCCCO)cc2)O[C@H]1c1ccccc1CN=[N+]=[N-]` in?
bucket A

Which category does the recorded z-score put `NCCCCCCNC(=O)[C@@H]1C[C@@H]2C(=O)N[C@@H](Cc3ccccc3)C(=O)N2[C@@H]1c1ccc(O)cc1` in?
bucket A

Which category does the recorded z-score put CN1C=C(C(=O)OCCS(C)(=O)=O)C(C(=O)OCCS(C)(=O)=O)=CC(CCCO)=CC1c1cccs1 (stereo not given) in?
bucket C

Which category does the recorded z-score put `CO[C@H]1O[C@H](CO)[C@@H](OC(=O)CCc2ccccc2)[C@@H]2OC(=O)[C@H](Cc3ccccc3)C/C=C/C[C@@H](Cc3ccccc3)C(=O)O[C@@H]12` in?
bucket B

Which category does the recorded z-score put `C=C(CCCC)/C(=C/C[C@@H](OC(=O)c1ccncc1)c1ccc(OCCO)cc1)c1cnc2ccccc2c1` in?
bucket B

Which category does the recorded z-score put `COCCCN1C(=O)[C@@]2(Cc3ccccc31)c1ccccc1C(=O)N(Cc1ccccc1Cl)[C@H]2c1ccc(CO)cc1` in?
bucket B

Which category does the recorded z-score put C[C@@H](OCc1ccccc1)C1NC(=O)[C@@]23C(=O)N[C@@H](Cc4ccccc4)C2[C@H](C)[C@@]2(C)O[C@H]2C3/C=C/C/C=C\CNC(=O)[C@@H]2CCCN2C1=O (stereo not given in full) in?
bucket C

Which category does the recorded z-score put CC(=O)OC(C/C=C\B1OC(C)(C)C(C)(C)O1)c1ccccc1 (stereo not given) in?
bucket B

Which category does the recorded z-score put `COC(=O)C(CC#Cc1ccc2c(c1)[C@]1(C(=O)N2)[C@H](c2ccccc2OCCO)N2[C@H](c3ccccc3)[C@H](c3ccccc3)OC(=O)[C@H]2[C@@H]1C(=O)N1CCCCCCC1)C(=O)OC` in?
bucket A

Which category does the recorded z-score put `CC(C)NC(=O)[C@@H]1c2ccccc2C(=O)N(Cc2cc(F)cc(C(F)(F)F)c2)[C@H]1c1ccc(CO)cc1` in?
bucket C

Which category does the recorded z-score put `O=C(NCc1ccccc1)[C@@H]1c2ccccc2C(=O)N(Cc2ccccc2Cl)[C@H]1c1ccc(CO)cc1` in?
bucket B

Which category does the recorded z-score put `CO[C@H]1O[C@H](CO)[C@@H](OC(=O)Nc2ccccc2)[C@H](OC(=O)Nc2ccccc2-c2ccccc2)[C@@H]1OC(=O)Nc1ccccc1-c1ccccc1` in?
bucket A

Which category does the recorded z-score put C=C1C=C(Br)C2(OCCCO2)[C@H]2OC12 (stereo not given in full) in?
bucket B

Which category does the recorded z-score put `CCCNC(=O)[C@@]1(Sc2ccc(C)cc2)CC(=O)N(Cc2cc(C(F)(F)F)cc(C(F)(F)F)c2)[C@@H]1c1ccc(CO)cc1I` in?
bucket A

Which category does the recorded z-score put C#CCN1C(C(=O)OCC)OC[C@H]1c1ccccc1 (stereo not given in full) in?
bucket B

Which category does the recorded z-score put `C=CCNC(=O)[C@H]1[C@@H]2C(=O)O[C@@H](c3ccccc3)[C@@H](c3ccccc3)N2[C@@H](c2ccccc2OCCO)[C@]12C(=O)N(C(=O)OCCOC)c1ccc(C#CCCO)cc12` in?
bucket B

Which category does the recorded z-score put `NC(=O)NCC#Cc1ccc2c(c1)[C@]1(C(=O)N2)[C@H](c2ccc(OCCO)cc2)N2[C@H](c3ccccc3)[C@H](c3ccccc3)OC(=O)[C@H]2[C@@H]1C(=O)Nc1nc2ccccc2s1` in?
bucket A

Which category does the recorded z-score put `C=CCC1(CC=C)C[C@H]2CO[C@H](c3ccc(OC)cc3)N2C1=O` in?
bucket B

Which category does the recorded z-score put `CC(C)N1C(=O)c2ccccc2[C@@H](C(=O)NCc2ccccc2)[C@@H]1c1ccc(CO)cc1` in?
bucket B

Which category does the recorded z-score put `COc1ccc([Si](C)(C)[C@H]2[C@H](CC(=O)N(CCO)Cc3ccccc3)O[C@@]3(C(=O)N(Cc4cccc(N5C(=O)COc6ccccc65)c4)c4ccccc43)[C@@H]2C)cc1` in?
bucket A

Which category does the recorded z-score put `CCCCC(=C=CC[C@@H](O)c1ccc(OCCO)cc1)C[C@@H](O)c1cc(Cl)cc(Cl)c1O` in?
bucket B

Which category does the recorded z-score put `COc1ccc(/C=C/C(=O)c2cccc(OCC(=O)OC(C)(C)C)c2)cc1` in?
bucket B

Which category does the recorded z-score put `C=C(/C(=C/C[C@H](OC(C)=O)c1cccc(OCCO)c1)c1cc(C(=O)OC)ccc1OC)C(C)C` in?
bucket C

----------
experimentNotes: cell viability in Huh7 cells, primary screen, cytotoxicity control for HCV replication inhibitor project, CellTiter-Glo luminescence, basal, 48 h (AID 1143);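 further: Huh7 hepatoma cells carrying a hepatitis C replication reporter with no stimulus; test concentration not given here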
studyConditions: Huh7 HCV replicon, higher = more signal, called active from +8 up or from −8 down
Label MET when z-score >= -1; otherwise NOT MET.

Decide: z-score of `CC(C)C(=C=CC[C@H](O)c1ccc(OCCO)cc1)C[C@H](O)COCc1ccccc1` >= -1?
NOT MET

Decide: z-score of `C=C(COC)C(=O)CC[C@H](OC(=O)c1cccnc1)c1cccc(OCCO)c1` >= -1?
MET

Decide: z-score of C=CCC(OC(C)=O)[C@@H]1[C@@H](N(Cc2cccc3ccccc23)C(=O)c2cccc3ccccc23)c2cc(OCCCO)ccc2N1C(=O)Cc1ccc(OC)cc1 (stereo partly drawn) >= -1?
NOT MET

Decide: z-score of `COC(=O)c1c(CC[C@@H](CO)NC(=O)Nc2ccc(OC)cc2)oc(C(=O)Cc2ccccc2)c1C(=O)OC` >= -1?
MET

Decide: z-score of `COCCOC(=O)N1C(=O)[C@@]2(c3cc(C#CCNC(N)=O)ccc31)[C@H](C(=O)NC[C@H](O)c1ccccc1)[C@H]1C(=O)O[C@H](c3ccccc3)[C@H](c3ccccc3)N1[C@@H]2c1ccc(O)cc1` >= -1?
NOT MET

Decide: z-score of `CC(C)(C)OC(=O)CC[C@]1(C(=O)NCc2ccccc2)COC(c2ccc(OCCCO)cc2)=N1` >= -1?
NOT MET

Decide: z-score of `COc1ccc(/C=C/C(=O)c2cccc(OCC(=O)OC(C)(C)C)c2)cc1` >= -1?
MET

Decide: z-score of `COC(=O)C(CC#Cc1ccc2c(c1)[C@]1(C(=O)N2)[C@H](c2ccccc2OCCO)N2[C@H](c3ccccc3)[C@H](c3ccccc3)OC(=O)[C@H]2[C@@H]1C(=O)N1CCCCCCC1)C(=O)OC` >= -1?
NOT MET

Decide: z-score of `C=CCNC(=O)[C@@H]1[C@H]2C(=O)O[C@H](c3ccccc3)[C@H](c3ccccc3)N2[C@H](c2ccc(O)cc2)[C@@]12C(=O)Nc1ccc(C#Cc3ccc(OC)cc3)cc12` >= -1?
NOT MET

Decide: z-score of C=CCC(OC(C)=O)[C@@H]1[C@@H](N(Cc2cc3ccccc3o2)C(=O)c2ccc(-c3ccccc3)cc2)c2cc(OCCCO)ccc2N1C(=O)c1ccc(-c2ccccc2)cc1 (stereo partly drawn) >= -1?
MET

Decide: z-score of CCN(CC)c1ccc(N2CC=CC34O[C@@H]5C=CCOC(=O)[C@@H]5[C@H]3C(=O)N(C(CO)C(C)C)[C@@H]4C2=O)cc1 (stereo partly drawn) >= -1?
MET

Decide: z-score of `CC(C)CNC(=O)[C@@H]1c2ccccc2C(=O)N(Cc2ccc(OC(F)(F)F)cc2)[C@H]1c1ccc(CO)cc1` >= -1?
NOT MET

Decide: z-score of `[N-]=[N+]=Nc1ccccc1[C@H]1OC(c2ccc(OCCCO)cc2)=N[C@@]1(Cc1ccccc1)C(N)=O` >= -1?
NOT MET

Decide: z-score of `COc1ccc([Si](C)(C)[C@H]2[C@H](CC(=O)N(CCO)Cc3ccccc3)O[C@@]3(C(=O)N(Cc4ccc(N5CCC5=O)cc4)c4ccccc43)[C@@H]2C)cc1` >= -1?
NOT MET

Decide: z-score of `C/C=C/[C@@H](CCn1cc(CCO[Si](C(C)C)(C(C)C)C(C)C)nn1)[Si](C)(C)c1ccc(OC)cc1` >= -1?
NOT MET

Decide: z-score of `COc1ccc(C#Cc2ccc3c(c2)[C@]2(C(=O)N3)[C@H](c3ccc(O)cc3)N3[C@H](c4ccccc4)[C@H](c4ccccc4)OC(=O)[C@H]3[C@@H]2C(N)=O)cc1` >= -1?
NOT MET

Decide: z-score of COC(=O)C1=CC(c2ccc(CO)cc2)=CC(C2CC2)N(C)C=C1C(=O)OC (stereo not drawn) >= -1?
NOT MET

Decide: z-score of COC(=O)C1=CC(CCCO)=CC(C2CC2)N(Cc2cc3c(cc2Br)OCO3)C=C1C(=O)OC (stereo not drawn) >= -1?
NOT MET

Decide: z-score of `C=C(COC)/C(=C/C[C@H](OC(C)=O)c1cccc(OCCO)c1)c1cc(C(=O)OC)ccc1OC` >= -1?
NOT MET

Decide: z-score of `COC(=O)[C@@]1(CCC(=O)OC(C)(C)C)COC(c2ccc(OCCCO)cc2)=N1` >= -1?
MET

Decide: z-score of `CCOC(=O)C[C@H]1[C@H](OC(=O)c2ccc(C(=O)c3ccccc3)cc2)[C@@H](NC(=O)Cc2ccc(OC)cc2)c2cc(OCCCO)ccc2N1C(=O)Cc1ccc(OC)cc1` >= -1?
MET

Decide: z-score of `COCCCNC(=O)[C@@]1(Cc2ccccc2CN=[N+]=[N-])COC(c2ccc(OCCCO)cc2)=N1` >= -1?
NOT MET

Decide: z-score of `COCCOC(=O)N1C(=O)[C@@]2(c3cc(C#CC4(O)CCCCCC4)ccc31)[C@H](C(=O)NC[C@H](O)c1ccccc1)[C@H]1C(=O)O[C@H](c3ccccc3)[C@H](c3ccccc3)N1[C@@H]2c1ccccc1OCCO` >= -1?
NOT MET

Decide: z-score of `COc1c(C)cc(-c2cc3c(c(CCc4ccccc4)n2)[Si](C(C)C)(C(C)C)OC3)cc1C` >= -1?
MET

Decide: z-score of `COC(=O)C(CC#Cc1ccc2c(c1)[C@]1(C(=O)N2)[C@H](C(N)=O)[C@H]2C(=O)O[C@H](c3ccccc3)[C@H](c3ccccc3)N2[C@@H]1c1ccc(O)cc1)C(=O)OC` >= -1?
MET

Decide: z-score of `C[N+](C)(C)CCCC[C@@H]1NC(=O)[C@@H]2C[C@H](C(=O)NCCCCCNC(=O)CS)[C@H](c3ccc(O)cc3)N2C1=O` >= -1?
MET

Decide: z-score of `C=C(/C(=C/C[C@H](OC(=O)c1ccncc1)c1cccc(OCCO)c1)c1cc(C(=O)OC)ccc1OC)C(C)C` >= -1?
NOT MET
